Test system: 874868-142-R-J2-PDC complex spheroids, growth % test/control
assay_remarks: Anticancer human tumor 874868-142-R-J2-PDC patient-derived head and neck squamous carcinoma cell line growth inhibition [CLK]
condition_summary: curve of first compound; second compound 10 µM
From the text: A high-throughput screen of multi-cell type tumor spheroids was designed to identify active combinations of […] and targeted small molecules. Complex spheroids include a stromal component modeled by human endothelial cells (HUVEC) and fibroblasts modeled by human mesenchymal stem cells (MSCs). […] Compounds. […] If the clinical Cmax for an agent had not been determined, the highest concentration tested was 10 microM. […]
pIC50: −log10 of the molar value.
endpoint_name: pIC50

1) CC1COCCN1c1cc(C2(S(C)(=N)=O)CC2)nc(-c2ccnc3[nH]ccc23)n1 (stereo not given) + CNC(=O)c1ccc(Nc2nc(OC3CCCC3)c3c(-c4ccc5nc(C)oc5c4)c[nH]c3n2)c(OC)c1 : > 7.50
2) C#Cc1c(F)ccc2cc(O)cc(-c3ncc4c(N5CC6CCC(C5)N6)nc(OCC56CCCN5CC(F)C6)nc4c3F)c12 (stereo not given) + CNC(=O)c1ccc(Nc2nc(OC3CCCC3)c3c(-c4ccc5nc(C)oc5c4)c[nH]c3n2)c(OC)c1 : > 7.50
3) COc1ccc([C@@H](O)c2cc(-c3ncnc4cc(N5CCOCC5)ccc34)c(F)cc2Cl)nn1 + CN1CCN(c2cc(C(=O)Nc3cc4cc(-c5cnn(C)c5)ccc4cn3)ccn2)CC1 : > 7.50
4) CC1(C)CCC(CN2CCN(c3ccc(C(=O)NS(=O)(=O)c4ccc(NCC5CCOCC5)c([N+](=O)[O-])c4)c(Oc4cnc5[nH]ccc5c4)c3)CC2)=C(c2ccc(Cl)cc2)C1 + CN1CCN(c2cc(C(=O)Nc3cc4cc(-c5cnn(C)c5)ccc4cn3)ccn2)CC1 : > 7.50
5) CCN1CCN(Cc2ccc(Nc3ncc(F)c(-c4cc(F)c5nc(C)n(C(C)C)c5c4)n3)nc2)CC1 + CNC(=O)c1ccc(Nc2nc(OC3CCCC3)c3c(-c4ccc5nc(C)oc5c4)c[nH]c3n2)c(OC)c1 : > 8.50
6) Nc1ccn(C2OC(CO)C(O)C2(F)F)c(=O)n1 (stereo not given) + CNC(=O)c1ccc(Nc2nc(OC3CCCC3)c3c(-c4ccc5nc(C)oc5c4)c[nH]c3n2)c(OC)c1 : > 7.50
7) COC1C=CCC(C)C(C)S(=O)(=O)NC(=O)c2ccc3c(c2)N(CC2CCC21)CC1(CCCc2cc(Cl)ccc21)CO3 (stereo not given) + CN1CCN(c2cc(C(=O)Nc3cc4cc(-c5cnn(C)c5)ccc4cn3)ccn2)CC1 : > 7.50
8) COC1C=CCC(C)C(C)S(=O)(=O)NC(=O)c2ccc3c(c2)N(CC2CCC21)CC1(CCCc2cc(Cl)ccc21)CO3 (stereo not given) + CNC(=O)c1ccc(Nc2nc(OC3CCCC3)c3c(-c4ccc5nc(C)oc5c4)c[nH]c3n2)c(OC)c1 : > 7.50
9) CCc1c2c(nc3ccc(O)cc13)-c1cc3c(c(=O)n1C2)COC(=O)[C@]3(O)CC + CN1CCN(c2cc(C(=O)Nc3cc4cc(-c5cnn(C)c5)ccc4cn3)ccn2)CC1 : > 8.50
10) Nc1ccccc1NC(=O)c1ccc(CNC(=O)OCc2cccnc2)cc1 + CN1CCN(c2cc(C(=O)Nc3cc4cc(-c5cnn(C)c5)ccc4cn3)ccn2)CC1 : > 7.50
11) CC(=O)O[C@H]1C(=O)[C@@]2(C)[C@H]([C@H](OC(=O)c3ccccc3)[C@]3(O)C[C@H](OC(=O)[C@H](O)[C@@H](NC(=O)c4ccccc4)c4ccccc4)C(C)=C1C3(C)C)[C@]1(OC(C)=O)CO[C@@H]1C[C@@H]2O + CNC(=O)c1ccc(Nc2nc(OC3CCCC3)c3c(-c4ccc5nc(C)oc5c4)c[nH]c3n2)c(OC)c1 : > 7.50
12) C=C(F)C(=O)N1CCN(c2nc(OCC3CCCN3C)nc3c2CCN(c2cccc4cccc(Cl)c24)C3)CC1CC#N (stereo not given) + CNC(=O)c1ccc(Nc2nc(OC3CCCC3)c3c(-c4ccc5nc(C)oc5c4)c[nH]c3n2)c(OC)c1 : > 7.50
13) C=C(F)C(=O)N1CCN(c2nc(OCC3CCCN3C)nc3c2CCN(c2cccc4cccc(Cl)c24)C3)CC1CC#N (stereo not given) + CN1CCN(c2cc(C(=O)Nc3cc4cc(-c5cnn(C)c5)ccc4cn3)ccn2)CC1 : > 7.50
14) C=CC(=O)N1CCN(c2nc(=O)n(-c3c(C)ccnc3C(C)C)c3nc(-c4c(O)cccc4F)c(F)cc23)C(C)C1 (stereo not given) + CNC(=O)c1ccc(Nc2nc(OC3CCCC3)c3c(-c4ccc5nc(C)oc5c4)c[nH]c3n2)c(OC)c1 : > 7.50
15) CC(CO)NC(=O)c1cc(-c2ccc(Cl)cc2)nn(-c2cnn(C)c2)c1=O (stereo not given) + CN1CCN(c2cc(C(=O)Nc3cc4cc(-c5cnn(C)c5)ccc4cn3)ccn2)CC1 : > 7.50
16) CCCS(=O)(=O)Nc1ccc(F)c(C(=O)c2c[nH]c3ncc(-c4ccc(Cl)cc4)cc23)c1F + CNC(=O)c1ccc(Nc2nc(OC3CCCC3)c3c(-c4ccc5nc(C)oc5c4)c[nH]c3n2)c(OC)c1 : > 7.50
17) COc1cccc2c1C(=O)c1c(O)c3c(c(O)c1C2=O)CC(O)(C(=O)CO)CC3OC1CC(N)C(O)C(C)O1 (stereo not given) + CN1CCN(c2cc(C(=O)Nc3cc4cc(-c5cnn(C)c5)ccc4cn3)ccn2)CC1 : > 7.50
18) C=CC(=O)Nc1cc(Nc2nccc(-c3cn(C)c4ccccc34)n2)c(OC)cc1N(C)CCN(C)C + CNC(=O)c1ccc(Nc2nc(OC3CCCC3)c3c(-c4ccc5nc(C)oc5c4)c[nH]c3n2)c(OC)c1 : > 9.02
19) CC1COCCN1c1cc(C2(S(C)(=N)=O)CC2)nc(-c2ccnc3[nH]ccc23)n1 (stereo not given) + CN1CCN(c2cc(C(=O)Nc3cc4cc(-c5cnn(C)c5)ccc4cn3)ccn2)CC1 : > 7.50
20) COc1ccc([C@@H](O)c2cc(-c3ncnc4cc(N5CCOCC5)ccc34)c(F)cc2Cl)nn1 + CNC(=O)c1ccc(Nc2nc(OC3CCCC3)c3c(-c4ccc5nc(C)oc5c4)c[nH]c3n2)c(OC)c1 : > 7.50

---

System: 874868-142-R-J2-PDC complex spheroids, growth % test/control
assay_remarks: Anticancer human tumor 874868-142-R-J2-PDC cell line growth inhibition [CLK];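 further: spheroids exposed to the compounds for 7 days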;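 on viability, T/C: 100% = DMSO vehicle control viability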
condition_summary: second compound 0.1 µM; first compound 0.00949 µM; stronger effect = lower value
Form field: viability, T/C (one value per entry).
endpoint_name: viability, T/C

1. CC(C)CC(NC(=O)C(Cc1ccccc1)NC(=O)c1cnccn1)B(O)O (stereo unspecified) + CN1CCN(c2cc(C(=O)Nc3cc4cc(-c5cnn(C)c5)ccc4cn3)ccn2)CC1 : 2.27%
2. CC(C)CC(NC(=O)C(Cc1ccccc1)NC(=O)c1cnccn1)B(O)O (stereo unspecified) + CNC(=O)c1ccc(Nc2nc(OC3CCCC3)c3c(-c4ccc5nc(C)oc5c4)c[nH]c3n2)c(OC)c1 : 1.32%
3. NC(=O)C(=Cn1cnc(-c2cc(C(F)(F)F)cc(C(F)(F)F)c2)n1)c1cncnc1 + CNC(=O)c1ccc(Nc2nc(OC3CCCC3)c3c(-c4ccc5nc(C)oc5c4)c[nH]c3n2)c(OC)c1 : 66.4%
4. C=CC(=O)Nc1cc(Nc2nccc(-c3cn(C)c4ccccc34)n2)c(OC)cc1N(C)CCN(C)C + CN1CCN(c2cc(C(=O)Nc3cc4cc(-c5cnn(C)c5)ccc4cn3)ccn2)CC1 : 59.1%
5. C=CC(=O)Nc1cc(Nc2nccc(-c3cn(C)c4ccccc34)n2)c(OC)cc1N(C)CCN(C)C + CNC(=O)c1ccc(Nc2nc(OC3CCCC3)c3c(-c4ccc5nc(C)oc5c4)c[nH]c3n2)c(OC)c1 : 57.5%
6. NC(=O)C(=Cn1cnc(-c2cc(C(F)(F)F)cc(C(F)(F)F)c2)n1)c1cncnc1 + CN1CCN(c2cc(C(=O)Nc3cc4cc(-c5cnn(C)c5)ccc4cn3)ccn2)CC1 : 50%

---

System: 874868-142-R-J2-PDC complex spheroids, growth % test/control
assay_remarks: Anticancer human tumor 874868-142-R-J2-PDC cell line growth inhibition [CLK];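 further: spheroids exposed to the compounds for 7 days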;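 on viability, T/C: 100% = DMSO vehicle control viability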
condition_summary: second compound 1 µM; first compound 1 µM; stronger effect = lower value
Text: A high-throughput screen of multi-cell type tumor spheroids was designed to identify active combinations of […] and targeted small molecules. Complex spheroids include a stromal component modeled by human endothelial cells (HUVEC) and fibroblasts modeled by human mesenchymal stem cells (MSCs). […] Compounds. […] If the clinical Cmax for an agent had not been determined, the highest concentration tested was 10 microM. […]
endpoint_name: viability, T/C (%)

1. CC(CO)NC(=O)c1cc(-c2ccc(Cl)cc2)nn(-c2cnn(C)c2)c1=O (centres undefined) + CNC(=O)c1ccc(Nc2nc(OC3CCCC3)c3c(-c4ccc5nc(C)oc5c4)c[nH]c3n2)c(OC)c1 : 43.1
2. Nc1ccn(C2OC(CO)C(O)C2(F)F)c(=O)n1 (centres undefined) + CNC(=O)c1ccc(Nc2nc(OC3CCCC3)c3c(-c4ccc5nc(C)oc5c4)c[nH]c3n2)c(OC)c1 : 23.1
3. CCCS(=O)(=O)Nc1ccc(F)c(C(=O)c2c[nH]c3ncc(-c4ccc(Cl)cc4)cc23)c1F + CN1CCN(c2cc(C(=O)Nc3cc4cc(-c5cnn(C)c5)ccc4cn3)ccn2)CC1 : 0.32
4. C=C(F)C(=O)N1CCN(c2nc(OCC3CCCN3C)nc3c2CCN(c2cccc4cccc(Cl)c24)C3)CC1CC#N (centres undefined) + CN1CCN(c2cc(C(=O)Nc3cc4cc(-c5cnn(C)c5)ccc4cn3)ccn2)CC1 : 0.61
5. COc1ccc([C@@H](O)c2cc(-c3ncnc4cc(N5CCOCC5)ccc34)c(F)cc2Cl)nn1 + CNC(=O)c1ccc(Nc2nc(OC3CCCC3)c3c(-c4ccc5nc(C)oc5c4)c[nH]c3n2)c(OC)c1 : 29.7
6. C#Cc1c(F)ccc2cc(O)cc(-c3ncc4c(N5CC6CCC(C5)N6)nc(OCC56CCCN5CC(F)C6)nc4c3F)c12 (centres undefined) + CNC(=O)c1ccc(Nc2nc(OC3CCCC3)c3c(-c4ccc5nc(C)oc5c4)c[nH]c3n2)c(OC)c1 : 35.2
7. CC1COCCN1c1cc(C2(S(C)(=N)=O)CC2)nc(-c2ccnc3[nH]ccc23)n1 (centres undefined) + CNC(=O)c1ccc(Nc2nc(OC3CCCC3)c3c(-c4ccc5nc(C)oc5c4)c[nH]c3n2)c(OC)c1 : 35
8. C=CC(=O)N1CCN(c2nc(=O)n(-c3c(C)ccnc3C(C)C)c3nc(-c4c(O)cccc4F)c(F)cc23)C(C)C1 (centres undefined) + CNC(=O)c1ccc(Nc2nc(OC3CCCC3)c3c(-c4ccc5nc(C)oc5c4)c[nH]c3n2)c(OC)c1 : 46.1
9. CC(=O)O[C@H]1C(=O)[C@@]2(C)[C@H]([C@H](OC(=O)c3ccccc3)[C@]3(O)C[C@H](OC(=O)[C@H](O)[C@@H](NC(=O)c4ccccc4)c4ccccc4)C(C)=C1C3(C)C)[C@]1(OC(C)=O)CO[C@@H]1C[C@@H]2O + CNC(=O)c1ccc(Nc2nc(OC3CCCC3)c3c(-c4ccc5nc(C)oc5c4)c[nH]c3n2)c(OC)c1 : 62.3
10. CC1(C)CCC(CN2CCN(c3ccc(C(=O)NS(=O)(=O)c4ccc(NCC5CCOCC5)c([N+](=O)[O-])c4)c(Oc4cnc5[nH]ccc5c4)c3)CC2)=C(c2ccc(Cl)cc2)C1 + CN1CCN(c2cc(C(=O)Nc3cc4cc(-c5cnn(C)c5)ccc4cn3)ccn2)CC1 : 0.29
11. CC1COCCN1c1cc(C2(S(C)(=N)=O)CC2)nc(-c2ccnc3[nH]ccc23)n1 (centres undefined) + CN1CCN(c2cc(C(=O)Nc3cc4cc(-c5cnn(C)c5)ccc4cn3)ccn2)CC1 : 0.28
12. CC(Nc1ccc2c(c1)OCCn1cc(N3C(=O)OCC3C(F)F)nc1-2)C(N)=O (centres undefined) + CN1CCN(c2cc(C(=O)Nc3cc4cc(-c5cnn(C)c5)ccc4cn3)ccn2)CC1 : 0.15
13. CC(=O)O[C@H]1C(=O)[C@@]2(C)[C@H]([C@H](OC(=O)c3ccccc3)[C@]3(O)C[C@H](OC(=O)[C@H](O)[C@@H](NC(=O)c4ccccc4)c4ccccc4)C(C)=C1C3(C)C)[C@]1(OC(C)=O)CO[C@@H]1C[C@@H]2O + CN1CCN(c2cc(C(=O)Nc3cc4cc(-c5cnn(C)c5)ccc4cn3)ccn2)CC1 : 0.59
14. O=c1[nH]cc(F)c(=O)[nH]1 + CN1CCN(c2cc(C(=O)Nc3cc4cc(-c5cnn(C)c5)ccc4cn3)ccn2)CC1 : 0.29
15. O=c1[nH]cc(F)c(=O)[nH]1 + CNC(=O)c1ccc(Nc2nc(OC3CCCC3)c3c(-c4ccc5nc(C)oc5c4)c[nH]c3n2)c(OC)c1 : 29.4
16. CC1(C)CCC(CN2CCN(c3ccc(C(=O)NS(=O)(=O)c4ccc(NCC5CCOCC5)c([N+](=O)[O-])c4)c(Oc4cnc5[nH]ccc5c4)c3)CC2)=C(c2ccc(Cl)cc2)C1 + CNC(=O)c1ccc(Nc2nc(OC3CCCC3)c3c(-c4ccc5nc(C)oc5c4)c[nH]c3n2)c(OC)c1 : 46.1
17. C=C(F)C(=O)N1CCN(c2nc(OCC3CCCN3C)nc3c2CCN(c2cccc4cccc(Cl)c24)C3)CC1CC#N (centres undefined) + CNC(=O)c1ccc(Nc2nc(OC3CCCC3)c3c(-c4ccc5nc(C)oc5c4)c[nH]c3n2)c(OC)c1 : 38.5
18. CC(CO)NC(=O)c1cc(-c2ccc(Cl)cc2)nn(-c2cnn(C)c2)c1=O (centres undefined) + CN1CCN(c2cc(C(=O)Nc3cc4cc(-c5cnn(C)c5)ccc4cn3)ccn2)CC1 : 0.31
19. COc1cccc2c1C(=O)c1c(O)c3c(c(O)c1C2=O)CC(O)(C(=O)CO)CC3OC1CC(N)C(O)C(C)O1 (centres undefined) + CNC(=O)c1ccc(Nc2nc(OC3CCCC3)c3c(-c4ccc5nc(C)oc5c4)c[nH]c3n2)c(OC)c1 : 0.21
